These data points were gathered from patent US20240239894A1.

Each item that follows carries a reported kon.
- Tested on: B7-H4-SV (splice variant)
- assay-name: ForteBio Octet affinity
- run-conditions: hIgG1-TM (n = 4-7)
Please answer using a numeric value trailed by its unit.

INSERT INTO measurements (molecule, result) VALUES
  ('ZY0EOB-F05: anti-B7-H4 antibody clone, VH SEQ ID NO: 35, VL SEQ ID NO: 36 (antibody, V domains shown) VH: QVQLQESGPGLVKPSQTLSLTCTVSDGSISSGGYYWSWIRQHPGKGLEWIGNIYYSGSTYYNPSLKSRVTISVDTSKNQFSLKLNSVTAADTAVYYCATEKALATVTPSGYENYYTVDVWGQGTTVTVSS VL: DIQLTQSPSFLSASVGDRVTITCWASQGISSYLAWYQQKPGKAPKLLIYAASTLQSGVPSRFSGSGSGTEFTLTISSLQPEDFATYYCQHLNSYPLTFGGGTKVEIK', '3350 M⁻¹ s⁻¹'),
  ('ZY0E05-E07: anti-B7-H4 antibody clone, VH SEQ ID NO: 37, VL SEQ ID NO: 38 (antibody, V domains shown) VH: QVQLQESGPGLVKPSQTLSLTCTVSGGSISSGGYYWSWIRQHPGKGLEWIGNIYYSGSTYYNPSLKSRVTISVDTSKNQFSLKLSSVTAADTAVYYCAREKALASVIPSGYENYYVVDVWGQGTTVTVSS VL: DIQLTQSPSFLSASVGGRVTITCWASQGIAGYLAWYQQKPGKAPKLLIYAASTLQSGVPSRFSGSGSGTEFTLTISSLQPEDFATYYCQHLNSYPLTFGGGTKVEIK', '1890 M⁻¹ s⁻¹');

Now take the following molecule into account.
Inquiry: Look at this molecule and give its reported kon. ZY0EPQ-E02: anti-B7-H4 antibody clone, VH SEQ ID NO: 31, VL SEQ ID NO: 32 (antibody, V domains shown) VH: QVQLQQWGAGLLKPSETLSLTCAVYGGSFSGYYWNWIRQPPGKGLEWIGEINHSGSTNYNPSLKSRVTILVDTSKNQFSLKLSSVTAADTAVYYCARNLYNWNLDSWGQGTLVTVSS VL: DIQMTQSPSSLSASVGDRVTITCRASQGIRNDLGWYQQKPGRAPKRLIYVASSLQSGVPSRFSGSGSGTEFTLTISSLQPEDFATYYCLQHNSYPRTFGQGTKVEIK
Reply text: 1380 M⁻¹ s⁻¹
